Each recorded value in this set is attributed to patent US12281155.

testedOn: Spike protein of SARS-CoV-2 strain XBB.1.16 (hCoV-19/France/GES-IPP7712/2023) (SARS-CoV-2)
protocolNotes: cell-based or functional assay
measurementType: IC50, S-Fuse neutralization of live virus (µg/mL)

[
  {
    "binder": "SPK002M B2 antibody (antibody, human IgG1, kappa, V domains shown) VH: EVQLVESGGGLIQPGGSLRLSCAASIITVTSNYMSWVRQAPGKGLEWVSVIYPGGSTFYADSVKGRFTISYDNSKNTLYLQMNSLRAEDTAVYYCARDLVVYGMDVWGQGTTVTVSS VL: EIVLTQSPGTLSLSPGERATLSCRASQSVSSSYLAWYQQKPGQAPRLLIYGASSRATGIPGRFSGSGSGTDFTLTISRLEPEDFAIYYCQQGVTFGGGTKVEIKR",
    "readoutNumber": 0.32
  },
  {
    "binder": "SPK002M A1 antibody (antibody, human IgG1, kappa, V domains shown) VH: EVQLVESGGGLIQPGGSLRLSCAASTITVTSNYMSWVRQAPGKGLEWVSVIYPGGSTFYADSVKGRFTISADNSKNTLYLQMNSLRAEDTAVYYCARDLVVYGMDVWGQGTTVTVSS VL: EIVLTQSPGTLSLSPGERATLSCRASQGFSSSYLAWYQQKPGQAPRLLIYGASSRATGIPGRFSGSGSGTDFTLTISRLEPEDFAVYYCQQGVTFGGGTKVEIKR",
    "readoutNumber": 0.17
  },
  {
    "binder": "SPK002M A3 antibody (antibody, human IgG1, kappa, V domains shown) VH: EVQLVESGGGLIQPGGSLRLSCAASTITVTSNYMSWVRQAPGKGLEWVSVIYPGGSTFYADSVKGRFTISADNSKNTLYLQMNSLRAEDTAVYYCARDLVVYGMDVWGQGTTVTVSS VL: EIVLTQSPGTLSLSPGERATLSCRASQSVSSSYLAWYQQKPGQAPRLLIYGASSRATGIPGRFSGSGSGTDFTLTISRLEPEDFAVYYCQQGVTFGGGTKVEIKR",
    "readoutNumber": 0.36
  },
  {
    "binder": "SPK002M C1 antibody (antibody, human IgG1, kappa, V domains shown) VH: EVQLVESGGGLIQPGGSLRLSCAASIITVTSNYMSWVRQAPGKGLEWVSVAYPGGSTFYADSVKGRFTISTDNSKNTLYLQMNSLRAEDTAVYYCARDLVVYGMDVWGQGTTVTVSS VL: EIVLTQSPGTLSLSPGERATLSCRASQSVSDSYLAWYQQKPGQAPRLLIYGASSRATGIPGRFSGSGSGTDFTLTISRLEPEDFAVYYCQYGVTFGGGTKVEIKR",
    "readoutNumber": 0.12
  },
  {
    "binder": "SPK002M A4 antibody (antibody, human IgG1, kappa, V domains shown) VH: EVQLVESGGGLIQPGGSLRLSCAASVITVTSNYMSWVRQAPGKGLEWVSVIYPGGSTFYADSVKGRFTISADNSKNTLYLQMNSLRAEDTAVYYCARDLVVYGMDVWGQGTTVTVSS VL: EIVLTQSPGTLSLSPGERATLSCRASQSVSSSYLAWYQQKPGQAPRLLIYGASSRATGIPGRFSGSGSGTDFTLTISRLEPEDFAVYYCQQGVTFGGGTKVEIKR",
    "readoutNumber": 0.36
  }
]
